Provenance of the data: ChEMBL document CHEMBL1201862

System: SF-539
protocol-notes: NCI tumour cell line growth inhibition, 48 h
Calls of active or inactive are those of the source. Rule as the data show it: active = GI50 up to about 1.1 µM and inactive = higher.
readout: GI50

For the molecule CN(C)CCNC(=O)c1cccc2[nH]c(-c3ccccc3)nc12 , give its measured GI50 value.
12.2 µM (inactive)

Determine its reported GI50: CC1=C(c2cc(C(=O)Nc3nccs3)nc(NC#N)n2)Sc2ccccc2N1
> 100 µM (inactive)

Please supply the value of reported GI50 for the item CC(C)=CCC[C@](C)(O[C@@H]1O[C@H](CO)[C@@H](O)[C@H](O)[C@H]1O)[C@H]1CC[C@]2(C)[C@@H]1[C@H](O)C[C@@H]1[C@@]3(C)CC[C@H](O)C(C)(C)[C@@H]3[C@@H](O[C@@H]3O[C@H](CO)[C@@H](O)[C@H](O)[C@H]3O)C[C@]12C [GINSENOSIDE RG1]
> 100 µM (inactive)

Output GI50 of NCCSSCc1ccccc1CSSCCN
> 100 µM (inactive)

For Cc1nc2c(sc(=S)n2-c2ccccc2)c(=O)[nH]1 , write its GI50.
> 100 µM (inactive)

For the molecule Clc1n[nH]c2ccccc12 , give its reported GI50.
> 100 µM (inactive)

Provide GI50 value for the following molecule: Cc1cc(=O)n2c3c(c4c(cc13)c(CO)cc(=O)n4C)OC2
7.73 µM (inactive)

Kindly indicate its recorded GI50. Item: COC(C(O)CO)C(O)C(O)C(=O)NNc1ccccc1 (stereo unspecified)
22.4 µM (inactive)

State, in one line, measured GI50 of CC1/C=C/C=C/CC/C=C/C=C/C=C/C=C/C(OC2OC(C)C(O)C(N)C2O)CC2OC(CC(O)C(O)CCC(O)CC(O)CC(O)CC(=O)OC(C)C(C)C1O)CC(O)C2C(=O)O (stereo unspecified)
16.1 µM (inactive)

Return the recorded GI50 value; entry: CCCC/C=C/C/C=C/CCCCCCCCC(=O)OCC1CCCN2CCCCC12 (stereo unspecified)
> 100 µM (inactive)

Identify measured GI50 associated with CCCCCCCCCCCCCCCCCCOP1(=O)OCCO1
> 100 µM (inactive)

# return recorded GI50 for entry O=C1C(=C2SC(c3ccccc3)(c3ccccc3)c3ccccc32)C(=O)c2ccccc21
> 100 µM (inactive)

Output measured GI50 for this item: CN(C)CC1CCCC(CN2CCCCC2)C1=O (stereo unspecified)
17.5 µM (inactive)

// fetch GI50 given entry COc1c2cc([N+](=O)[O-])cc1CN(C(=O)C(F)(F)F)CCOCCN(C(=O)C(F)(F)F)C2
> 100 µM (inactive)

// Input: CN(C)c1ccc(C(=C2C=CC(=[N+](C)C)C=C2)c2c(O)c(S(=O)(=O)[O-])cc3cc(S(=O)(=O)O)ccc23)cc1 . Output its GI50 only.
> 100 µM (inactive)

Fill in reported GI50 for this entry: CCC(=O)OCOc1ccc(/C=C2\CCC(CN(C)C)C2=O)cc1 (stereo unspecified)
8.41 µM (inactive)

---

System: EKVX
protocol-notes: NCI tumour cell line growth inhibition, 48 h
Activity calls are given as the source filed them. Cut-off read from the data, not from the text of the source: active = GI50 up to about 1.1 µM and inactive = higher.
Answer with one of the outcomes given here: t = active, f = inactive

How did this test come out for C=C1C(=O)O[C@@H]2C(=O)[C@@H](C)CCC/C(C)=C/CC[C@@]3(C)O[C@@H]3C[C@@H]12 ?
f

Identify the outcome logged in this assay for the compound shown: NC1CC(=O)c2cc(Br)sc21 (stereo unspecified)
f

Each compound tested received a call. Report the one for CCCCCCCCCCCCCCCCCCOP1(=O)OCCO1 .
f

Please indicate how the test categorized O=C(NC(Cc1ccc(I)cc1)C(=O)O)c1ccc(I)cc1 (stereo unspecified) .
f

Per the records of this test, what outcome belongs to CSc1c(C#N)c(N)n(-c2ccc(Cl)cc2)c(=O)c1C#N ?
f

What is the recorded call for this compound in the test? COC(=O)CCC(NC(=S)N/N=C/c1ccccn1)C(=O)OC (stereo unspecified)
f

Would you mind telling me which call this test gave Cc1cccc(NC(=S)Nc2cccc(Cl)c2)n1 ?
f

// param item: O=C1CCCC(=O)N1CCc1c[nH]c2ccccc12 ; yields the recorded call
f

# fetch the recorded call for COc1cc2c(cc1OC)C(=O)Cc1ccc(OC)c(OC)c1CN(C)CC2 here
f

Test call for this compound, please: NC(=S)N/N=C1\CCCC1C(O)(C(F)(F)Cl)C(F)(F)Cl (stereo unspecified)
f

Which result was noted for this compound in the test: Cc1ccc2[nH]c(Sc3c([N+](=O)[O-])ncn3C)nc2c1
f

Could you kindly confirm the outcome this assay logged for N=C(N)N/N=C/c1c(Cl)nc2sccn12 ?
f

I'd appreciate the recorded outcome for CC(NC(=O)C(C)NC(=O)C(N)CCP(C)(=O)O)C(=O)O (stereo unspecified) from this test.
f

Hey, what did the test say about CC1C(=O)C(C)C(c2cccs2)N(N=O)C1c1cccs1 (stereo unspecified) ?
f

Hey, what did the test say about O=c1c(-c2ccc(O)cc2)coc2cc(O)cc(O)c12 [GENISTEIN] ?
f

Could you please tell me the result logged for CCOC(=O)C1(C(=O)OCC)C[C@H](C)[C@](C)(O)C1 in this assay?
f

Hi, do you know how CC(C)(C)c1cc(C(=O)O)c(C(c2ccccc2)c2ccccc2C(=O)O)c(C(=O)O)c1 (stereo unspecified) came out in this test?
f

# fetch the recorded call for Cc1c2cnccc2c(C)c2c1c1ccccc1n2CCOC(=O)c1ccccc1 here
f

# outcome recorded in this test, key = Cc1ccc(/C=C/c2n[nH]c(N/N=C/c3ccc4c(c3)OCO4)nc2=O)cc1
f

Called result for O=C(NC(=O)c1ccccc1[N+](=O)[O-])Nc1ccc(Oc2ncc(Br)cn2)c(Cl)c1
t

// return assay outcome for O=C(O)CCN(CCCN(CCC(=O)O)CCC(=O)O)CCC(=O)O
f

What outcome does the record of this test show for O=C(O)C1Cc2ccccc2OC1=O (stereo unspecified) ?
f

Recorded call for COP(=O)(OC)c1ccc(NCc2cc(O)ccc2O)cc1 ?
f

What outcome does the record of this test show for Cn1cc[n+](-c2cc(=O)n(C)c(=O)[n-]2)c1 ?
f

Could you kindly confirm the outcome this assay logged for C[N+]1(C)C2CC(OC(=O)C(CO)c3ccccc3)CC1C1OC12 (stereo unspecified) ?
f

What did this assay record as the result for COc1ccc(Cn2c(=O)c(OS(=O)(=O)C(F)(F)F)c(C)c3cc4ccccc4cc32)cc1 ?
f

---

Test system: NCI-H226
protocol-notes: NCI tumour cell line growth inhibition, 48 h
Calls of active or inactive are those of the source. Rule as the data show it: active = GI50 up to about 1.1 µM and inactive = higher.
Would you mind telling me the reported GI50 of each entry?

Report measured GI50 on NCI-H226; entry: O=C(CC(C(=O)c1cccs1)c1ccsc1)c1ccc(Cl)s1 (stereo not drawn)
> 100 µM (inactive)

# assay system NCI-H226: give GI50 of CC(=O)C=C1Nc2ccccc2N1
> 100 µM (inactive)

Please tell me the measured GI50 for CC1C(C)(C)C23CC12C1(OCCO1)C3Br (stereo not drawn) ; system: NCI-H226.
> 100 µM (inactive)

---

Consider the following compounds; for each one, report its GI50.
System: HOP-92
protocol-notes: NCI tumour cell line growth inhibition, 48 h
The source made the active and inactive calls. Rule as the data show it: active = GI50 up to about 1.1 µM and inactive = higher.

Consider the compound C=C1c2ccccc2Oc2nc3nc(N)c(C#N)c(N)c3c(N)c21 . State its measured GI50.
55.2 µM (inactive)

Provide one value: measured GI50 of Cc1cc2c(c(C#N)c1C)NC(=O)C(CC(=O)O)C2=O (stereo not drawn)
> 100 µM (inactive)

Item CN/N=C(\C)c1c(O)cc(C)oc1=O : provide GI50
> 100 µM (inactive)

Note down GI50 recorded for O=C(c1ccc(NCN2C(=O)CCC2=O)cc1)c1ccc(NCN2C(=O)CCC2=O)cc1
> 100 µM (inactive)

Please list GI50 recorded for the compound CC1/C=C/C=C/CC/C=C/C=C/C=C/C=C/C(OC2OC(C)C(O)C(N)C2O)CC2OC(CC(O)C(O)CCC(O)CC(O)CC(O)CC(=O)OC(C)C(C)C1O)CC(O)C2C(=O)O (stereo not drawn)
45.6 µM (inactive)

Give the reported GI50 for this compound. C=CC(CCc1ccc(C(=O)OCC)cc1)c1c(N)nc(N)[nH]c1=O (stereo not drawn)
12.6 µM (inactive)

Indicate its recorded GI50; the compound in question is COC(C(O)CO)C(O)C(O)C(=O)NNc1ccccc1 (stereo not drawn)
> 100 µM (inactive)

# return recorded GI50 for input CC(C)(C)OC(=O)NC12C3C4C1C1C2C3C41NC(=O)OC(C)(C)C (stereo not drawn)
68.1 µM (inactive)

---

Lab note: GI50 readings collected with HCT-15 for the following molecules.
Kindly provide the numeric value in µM only, without the unit symbol.

Look up and report measured GI50 for this entry: C[Si](C)(C)C#Cc1cc(-c2nc3ccccc3s2)ccc1N
16.9

Respond only with GI50 recorded for Cc1ccc(/C=C2\CCS(=O)(=O)c3ccccc3C2=O)cc1
11.9

Answer with the recorded GI50 for the molecule listed here: COc1ccc2c3c1OC1C(F)C=CC4(O)C(C2)NCCC314 (stereo not drawn)
2.37

Give GI50 for the following molecule: Fc1ccccc1C1CC(C(c2ccccc2)c2ccccc2)=Nc2ccccc2S1 (stereo not drawn)
5.78

# return recorded GI50 for entry Cc1cc(C)nc(NS(=O)(=O)c2ccc(Nc3c4ccccc4nc4c(C(=O)NCCO)cccc34)cc2)n1
17.8

Output measured GI50 for this item: Cc1cccc(/C=N\NC(=S)N2CCCCC2)n1
0.0371

Supply recorded GI50 for C[N+]1(C)C/C(=C\C=C\c2ccccc2)C(=O)/C(=C/C=C/c2ccccc2)C1 here.
40.2

Return value of GI50 for input CC(C)=NN/C(=N\c1ccc(Cl)cc1)NS(=O)(=O)c1cc2ccccc2s1 , no commentary.
71.8

Check the records and state GI50 for CN1N=C2c3ccccc3CC[C@H]2C1c1ccccc1 (stereo partly drawn)
27

Give the reported GI50 for this molecule. C=C=C[P+](c1ccccc1)(c1ccccc1)c1ccccc1
11.5

For the molecule S=c1[nH]nc(Cn2c3ccc(Br)cc3c3nc4ccccc4nc32)o1 , report GI50.
1.06

Please report GI50 for the following molecule: CCOC(=O)c1cccc(NC(=O)CI)c1
0.336

State its GI50: CC(C)(CN1CCCCC1)C(=O)/C=C/c1ccc(Cl)c(Cl)c1
1.41

Provide one value: measured GI50 of O=C(c1ccccc1)c1ccc2nc3n(c2c1)C(c1c(Cl)cccc1Cl)SC3 (stereo not drawn)
3.35

Look up GI50 of Cc1ccc(NC(=O)CC2SC(Nc3ccc(Cl)cc3)=NC2=O)cc1C (stereo not drawn) and report it.
15.2

Give recorded GI50. CC(=O)c1c(O)ccc2c1CC(CC=O)O2 (stereo not drawn)
52.6

Input CC12CP(=O)(c3ccccc3)CC1c1ccccc1C2c1ccccc1 (stereo not drawn) , output reported GI50.
13.7

Return reported GI50. Input molecule: FC(F)(Sc1ccccc1)c1nc2ccccc2o1
22

Answer with the recorded GI50 of Cc1ccc([N+](=O)[O-])cc1S(=O)(=O)Nc1ccc(C2=NN(S(=O)(=O)c3cc([N+](=O)[O-])ccc3C)C(c3cccs3)C2)cc1 (stereo not drawn) only.
33.2
